# System: T-24
# METHOD DESCRIPTION: Antiproliferative activity against human T24 cells
# Format: functional
# PARTICULARS: read-out: ED50 (the source's name)
Collected EC50 values appear next to each entry.

[
  {
    "SMILES": "O[C@@H]1[C@@H](O)[C@H](Oc2cc(O[C@@H]3OC[C@@H](O)[C@H](O)[C@H]3O)c3ccccc3c2)OC[C@H]1O",
    "READOUT UNIT": "µM",
    "RESULT OPERATOR": ">",
    "EC50": 400
  },
  {
    "SMILES": "O[C@@H]1[C@@H](Oc2ccc3ccc(O[C@@H]4OC[C@@H](O)[C@H](O)[C@H]4O)cc3c2)OC[C@H](O)[C@H]1O",
    "READOUT UNIT": "µM",
    "RESULT OPERATOR": "=",
    "EC50": 450
  },
  {
    "SMILES": "O[C@@H]1[C@@H](O)[C@H](Oc2cccc3c(O[C@@H]4OC[C@@H](O)[C@H](O)[C@H]4O)cccc23)OC[C@H]1O",
    "READOUT UNIT": "µM",
    "RESULT OPERATOR": "=",
    "EC50": 400
  },
  {
    "SMILES": "O[C@@H]1[C@@H](O)[C@H](Oc2ccc(O[C@@H]3OC[C@@H](O)[C@H](O)[C@H]3O)c3ccccc23)OC[C@H]1O",
    "READOUT UNIT": "µM",
    "RESULT OPERATOR": "=",
    "EC50": 400
  },
  {
    "SMILES": "O[C@@H]1[C@@H](O)[C@H](Oc2ccc3cc(O[C@@H]4OC[C@@H](O)[C@H](O)[C@H]4O)ccc3c2)OC[C@H]1O",
    "READOUT UNIT": "µM",
    "RESULT OPERATOR": ">",
    "EC50": 400
  }
]
